Attribution: paper PMC9370150

Assay: Enantiomer plasma concentrations in cardiovascular patients after oral 25 mg rac-CAR (UHPLC-UV on Chiralpak IB N-5)
Details: human, plasma, po, 25 mg
concentration at 4 h values for the molecules below.
Please give a number only; it is taken to be in ng/mL.

Example cases with answers are listed next.
line_notation=COc1ccc(O)cc1OCCNC[C@H](O)COc1cccc2[nH]c3ccccc3c12 value_reported=14.1
line_notation=Oc1ccccc1OCCNC[C@H](O)COc1cccc2[nH]c3ccccc3c12 value_reported=8.52

Consider the record given below.
Task: Give the measured concentration at 4 h of `COc1cc(O)ccc1OCCNC[C@H](O)COc1cccc2[nH]c3ccccc3c12` .
Output: 16.1

###

concentration at 1 h values for the compounds below.
Test: Enantiomer plasma concentrations in cardiovascular patients after oral 25 mg rac-CAR (UHPLC-UV on Chiralpak IB N-5)
Settings: human, plasma, po, 25 mg
Could you kindly put the unit after your number?

compound="COc1ccccc1OCCNCC(O)COc1cccc2[nH]c3ccccc3c12 (stereo not shown)" value_reported="98.4 ng/mL"
compound=COc1ccccc1OCCNC[C@H](O)COc1cccc2[nH]c3ccccc3c12 value_reported="50 ng/mL"
compound=COc1ccccc1OCCNC[C@@H](O)COc1cccc2[nH]c3ccccc3c12 value_reported="48.4 ng/mL"

Task: Give the measured concentration at 1 h of `Oc1ccccc1OCCNC[C@H](O)COc1cccc2[nH]c3ccccc3c12` .
Output: 3.27 ng/mL

###

Assay: Enantiomer plasma concentrations in cardiovascular patients after oral 25 mg rac-CAR (UHPLC-UV on Chiralpak IB N-5)
Settings: human, plasma, po, 25 mg
concentration at 9 h values for the compounds below.
Please give a number only; it is taken to be in ng/mL.

Example cases with answers are listed next.
line_notation=COc1ccc(O)cc1OCCNC[C@H](O)COc1cccc2[nH]c3ccccc3c12 value_reported=8.09
line_notation=Oc1ccccc1OCCNC[C@H](O)COc1cccc2[nH]c3ccccc3c12 value_reported=5.02

Consider the record given below.
Task: Give the measured concentration at 9 h of `COc1cc(O)ccc1OCCNC[C@H](O)COc1cccc2[nH]c3ccccc3c12` .
Output: 8.18
